- Read-out: Secreted IgG (sIgG), gene 3500
- ASSAY METHOD TEXT: BSK_BT_sIgG: BioMAP Diversity Plus: BT Assay for Secreted IgG (sIgG) Biomarker Activity (AID 2284226)
- COND: primary human B cells with PBMC
Active and inactive are the calls of the source. The calls were made as follows: active = hit-call score of the fitted dose curve at least 0.9, where 1 is the maximum; inactive = score below 0.9.
Output constraint: value belongs to 1.0 for active, 0.0 for inactive

# lookup: test call for C=CC(C)(CCC=C(C)C)OC(C)=O (stereo unspecified) 0.0

Okay, and "Cc1cccc2c1ccc1ccccc12" ? 1.0

Okay, and "NC(=NCCCCCCN=C(N)/N=C(\N)Nc1ccc(Cl)cc1)/N=C(\N)Nc1ccc(Cl)cc1" ? 1.0

Okay, and "O=P(O)(O)CCC(F)(F)C(F)(F)C(F)(F)C(F)(F)C(F)(F)C(F)(F)C(F)(F)C(F)(F)F" ? 0.0

Okay, and "CC[N+](CC)(CC)Cc1ccccc1" ? 0.0

With those in mind, consider the next compound.
# lookup: test call for "O=C1OC2(c3ccccc31)c1cc(I)c(O)c(I)c1Oc1c2cc(I)c(O)c1I" 0.0
